Test system: KB-3-1
Test: Cytotoxic Profiling of Annotated Libraries Using Quantitative High-Throughput Screening (AID 1296008); note: % is set by controls: 0 for no effect and ±100 for the full control effect; nearly all actives have a fitted effect of over 60% in size
Conditions: Five cell lines viability, CellTiter-Glo ATP luminescence, 48-72 h; active compounds read low
Results filed as inconclusive are left out.
Quantity Measured: max response (%)
Respond with the bare value in %.

Task: Would you mind telling me what max response value was observed for `O=C1NCC2(CCN(CCc3ccccc3)CC2)O1` ?
Output: 9.9

Task: # query: max response of entry `CN(C)c1cc(NC(=O)CNC(C)(C)C)c(O)c2c1C[C@@H]1C[C@H]3[C@H](N(C)C)C(=O)C(C(N)=O)=C(O)[C@@]3(O)C(=O)C1=C2O`
Output: -10.5

* * *

Test: Quantitative High-Throughput drug screen in 47 multiple myeloma cell lines against the NCATS MIPE library collection: AMO1_DSMZ cell viability assay (AID 1918927; note: nearly all actives have a fitted effect of over 30% in size; note: potency is the fitted concentration of half-maximal effect)
Conditions: AMO1 myeloma cells viability, CellTiter-Glo ATP luminescence, 48 h; series mostly up to 45.8 µM
Inconclusive results are not listed. Active and inactive are the calls of the source. Calls follow the shape of the dose curve; as a rule, active = well fitted cell-killing curve with a large enough effect; inconclusive = small, poorly fitted or top-dose-only effect, or effect the other way; inactive = no such curve, though single readings can be large or run the other way.
Quantity Measured: Potency

Compound	Reported
N#Cc1ccc(NC(=O)Nc2ccccc2Br)c2n[nH]nc12	14.8 µM (active)
Cc1ccc([C@@H]2O[C@H](CO)[C@@H](O)[C@H](O)[C@@H]2O)cc1Cc1ccc(-c2ccc(F)cc2)s1	18.7 µM (active)
COc1cc2c(cc1OC)CN(CCc1ccc(NC(=O)c3cc(OC)c(OC)cc3NC(=O)c3cnc4ccccc4c3)cc1)CC2	inactive
CC(C)OC(=O)C(C)(C)Oc1ccc(C(=O)c2ccc(Cl)cc2)cc1	inactive
CC1(C)Cc2c(sc(NC(=S)NC(=O)c3ccccc3)c2C(=O)O)CO1	inactive

Task: # lookup: Potency of `C[C@]12CC[C@@H]3c4ccc(O)cc4CC[C@H]3[C@H]1C[C@@H](O)[C@H]2O`
Output: 18.7 µM (active)

Task: Can you share its Potency? I mean this compound: CNC1CCC(N(Cc2cccc(-c3ccncc3)c2)C(=O)c2sc3c(F)ccc(F)c3c2Cl)CC1 (stereo not drawn)
Output: 23.5 µM (active)

Task: Requested field: Potency. Item: `CC(C)(C)OC(=O)N[C@H]1CCCCCC=C[C@@H]2C[C@@]2(C(=O)NS(=O)(=O)C2CC2)NC(=O)[C@@H]2C[C@@H](OC(=O)N3Cc4cccc(F)c4C3)CN2C1=O`
Output: inactive

* * *

Experiment: qHTS of pediatric cancer cell lines to identify multiple opportunities for drug repurposing: Primary screen for RD cells (AID 1347104); note: nearly all actives have a fitted effect of over 55% in size
Details: RD rhabdomyosarcoma viability, CellTiter-Glo luminescence, 48 h; series mostly up to 46 µM
Records with an inconclusive call do not appear. Active and inactive are the calls of the source. The call rests on the fitted dose curve; in most records, active means well fitted cell-killing curve with a large enough effect; inconclusive means small, poorly fitted or top-dose-only effect; inactive means flat fitted curve, though single readings scatter.
Please state which outcome applies, choosing from active, inactive

See these solved cases before continuing.
Compound	Assigned Label
COc1ccc2c(Oc3ccc(NC(=O)c4c(C)n(CC(C)(C)O)n(-c5ccccc5)c4=O)nc3)ccnc2c1	inactive
O=C(NCCN1CCOCC1)c1ccc(Cl)cc1	inactive
CCOc1ccc(Nc2nc(-c3c(C)nc4ccccn34)cs2)cc1	inactive
O=C(NC1CCOCC1)c1ccc(-c2cc(-c3cn[nH]c3-c3ccccn3)ccn2)cc1	inactive
COc1ccccc1N1CCN(CCCNc2cc(=O)n(C)c(=O)n2C)CC1	inactive
CC=CCC=CCCC(=O)[C@H]1O[C@@H]1C(N)=O	inactive

Task: Please let me know the test result on file for Cc1cccc(C)c1OCC(C)N (stereo unspecified) .
Output: inactive

Task: Recorded test outcome, item `O=C(O)C=Cc1ccc(O)c(O)c1`
Output: active

Task: Tell me the assay call for COc1ccc(C2Sc3ccccc3N(CCN(C)C)C(=O)C2OC(C)=O)cc1 (stereo unspecified) please.
Output: inactive

Task: Tell me the recorded outcome of this test for `CCCCCN(C)CCC(O)(P(=O)(O)O)P(=O)(O)O` .
Output: inactive

Task: Please share the test call associated with `O=C(Nc1ccccc1-c1cn2c(CN3CCNCC3)csc2n1)c1cnc2ccccc2n1` .
Output: active

* * *

Test system: Es-2
Assay: Primary qHTS to identify gynecologic anti-cancer compounds using libraries of approved drugs and bioactive compounds (AID 1345084); note: % is set by controls: 0 for no effect and ±100 for the full control effect; nearly all actives have a fitted effect of over 55% in size
Conditions: Gynecologic cancer cell panel viability, ATPlite luminescence, 48 h; series mostly up to 57.5 µM
Inconclusive results are not listed. The source made the active and inactive calls. Calls come from the whole dose curve; as a rule, active = well fitted cell-killing curve with a large enough effect; inconclusive = small, poorly fitted or top-dose-only effect, or effect the other way; inactive = flat fitted curve, though single readings scatter.
Quantity Measured: outcome

Here's what some known entries look like.
Compound	Quantity Measured	Reported
CC(=O)c1ccc(S(=O)(=O)NC(=O)NC2CCCCC2)cc1	outcome	inactive
OC[C@@H](O)[C@H](O)[C@H](O)[C@@H](O)CO	outcome	inactive
Cc1c(NC(=O)c2ccc(C(C)(C)C)cc2)cccc1-c1cn(C)c(=O)c(Nc2ccc(C(=O)N3CCOCC3)cc2)n1	outcome	inactive
CC1(C)CCC(CN2CCN(c3ccc(C(=O)NS(=O)(=O)c4ccc(NCC5CCOCC5)c([N+](=O)[O-])c4)c(Oc4cnc5[nH]ccc5c4)c3)CC2)=C(c2ccc(Cl)cc2)C1	outcome	inactive
NC(N)=Nc1nc(CSCC/C(N)=N/S(N)(=O)=O)cs1	outcome	inactive
CCN(CC)C(=O)c1ccc(O)c(OC)c1	outcome	inactive
C[N+](C)(C)CC(=O)O	outcome	inactive
NCCS	outcome	inactive

Task: Value wanted: outcome (Es-2) of entry `Cn1c(N2CCCCS2(=O)=O)nc(C(=O)NCc2ccc(F)cc2)c(O)c1=O`
Output: inactive

Task: Item: `O=C(NCCN1CCOCC1)c1ccc(Cl)cc1` Test system: Es-2 Read-out: outcome Value: ?
Output: inactive

Task: Item `CC(C)(C)c1cc(C(=O)O)c(NC(=O)Nc2ccc3[nH]ncc3c2)s1` with Es-2 - outcome?
Output: inactive

Task: Can you look up outcome on Es-2 for CC(C)NCC(O)COc1cccc2[nH]ccc12 (stereo not given) ?
Output: inactive

Task: # query: outcome | item `COc1cc2ncnc(-n3nc(-c4ccccn4)nc3N)c2cc1OC` | system: Es-2
Output: inactive

Task: Query for Es-2: what outcome does the record show for `O=c1[nH]cnc2c1ncn2[C@H]1CC[C@@H](CO)O1` ?
Output: inactive

Task: Which outcome is reported with Es-2 for this entry: `CO[C@H]1C=CO[C@@]2(C)Oc3c(C)c(O)c4c(O)c(c5c(c4c3C2=O)NC2(CCN(CC(C)C)CC2)N=5)=NC(=O)C(C)=CC=C[C@H](C)[C@H](O)[C@@H](C)[C@@H](O)[C@@H](C)[C@H](OC(C)=O)[C@H]1C` ?
Output: inactive

* * *

Experiment: Confirmation and Secondary Assay for Modulators of Hemoglobin Beta Chain Splicing at IVS2 705 locus (AID 930);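 note: HeLa cells stably expressing the EGFP-705 splicing reporter; GFP fluorescence per well restored by corrected splicing of the IVS2-705 intron in EGFP; % of control where 0% means no effect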
Conditions: HeLa EGFP-705 splicing reporter, GFP fluorescence, 48 h; series mostly up to 46.1 µM
Activity calls are given as the source filed them. Calls come from the whole dose curve; as a rule, active = well fitted activation curve with a large enough effect; inconclusive = small, poorly fitted or top-dose-only effect; inactive = flat fitted curve, though single readings scatter.
Quantity Measured: outcome

These recorded examples may help you get a feel for the data.
Smiles Input	Reported
CCn1cc(C(=O)O)c(=O)c2ccc(C)nc21	inactive
O=C(O)CCc1nc(-c2ccccc2)c(-c2ccccc2)o1	inactive
CC(=O)CCCCn1c(=O)c2c(ncn2C)n(C)c1=O	inactive
CC(C)OC(=O)C(C)(C)Oc1ccc(C(=O)c2ccc(Cl)cc2)cc1	inactive
CCCCC1C(=O)N(c2ccccc2)N(c2ccccc2)C1=O	inactive

Field: next compound
Task: Fill in: outcome of `COc1ccc(-c2coc3cc(O)cc(O)c3c2=O)cc1` is ___
Output: inactive

* * *

Assay: Quantitative High-Throughput drug screen in 47 multiple myeloma cell lines against the NCATS MIPE library collection: Delta47_JCRB cell viability assay (AID 1918925; note: nearly all actives have a fitted effect of over 45% in size)
Conditions: Delta47 myeloma viability, CellTiter-Glo ATP, 48 h; series mostly up to 45.8 µM
Excerpt: PI: Beverly A. Mock Ph.D. Laboratory of Cancer Biology and Genetics, Center for Cancer Research, National Cancer Institute, National Institute of Health, Bethesda, Maryland […] 5; Detector; 425V; Luminescence; Viewlux PerkinElmer. […] 1. […] Briefly, the corresponding myeloma cell lines were screened in 1,536-well plates with 500 cells, 5-uL per well for inhibition of cell viability (assessed by measuring ATP levels with CellTiterGlo). […]
Records with an inconclusive call do not appear. The source made the active and inactive calls. Calls come from the whole dose curve; as a rule, active = well fitted cell-killing curve with a large enough effect; inconclusive = small, poorly fitted or top-dose-only effect, or effect the other way; inactive = no such curve, though single readings can be large or run the other way.
Entry note: the call must match one of active, inactive

Molecule	Assigned Label
CC1(C)CCC2=C(O1)c1ccccc1C(=O)C2=O	active
CC(C)=CC[C@@H](O)C1=CC(=O)c2c(O)ccc(O)c2C1=O	active
Cc1ccccc1C(C(=O)NC1CCCCC1)N(C(=O)Cn1ccnc1C)c1cccc(F)c1 (stereo not given)	active
CNC(=O)c1ccc2cc(C3(O)CCn4cncc43)ccc2c1 (stereo not given)	inactive
COc1cc2c(cc1OC)CN(CCc1ccc(NC(=O)c3cc(OC)c(OC)cc3NC(=O)c3cnc4ccccc4c3)cc1)CC2	active
CCC(CC)[C@H](NC(C)=O)[C@@H]1[C@H](O)[C@@H](C(=O)O)C[C@@H]1N=C(N)N	inactive
Cc1[nH]c(C=C2C(=O)Nc3ccc(S(=O)(=O)Cc4c(Cl)cccc4Cl)cc32)c(C)c1C(=O)N1CCC[C@H]1CN1CCCC1	active
COc1ccc2cc(-c3nc(-c4ccc(S(C)=O)cc4)[nH]c3-c3ccncc3)ccc2c1 (stereo not given)	active

Task: Kindly provide the recorded test outcome for the following molecule: `CCN(CC)CCOc1ccc(C(=C(Cl)c2ccccc2)c2ccccc2)cc1`
Output: active

Task: Answer briefly: the call reported for `Cc1cccc(Nc2nc(-c3ccncc3)cs2)c1` in this assay.
Output: active

Task: What was the test verdict on `COc1cc2ncnc(Nc3ccc(F)c(Cl)c3)c2cc1OCCCN1CCOCC1` ?
Output: active

Task: // outcome(item) with item = `O=C(OCC#CCSc1nnc(-c2cccc3ccccc23)o1)c1cc2ccccc2s1`
Output: inactive

Task: Lab log entry: `Cc1c(NC(=O)c2ccc(C(C)(C)C)cc2)cccc1-c1cn(C)c(=O)c(Nc2ccc(C(=O)N3CCOCC3)cc2)n1` — outcome as called in the assay?
Output: active

Task: Record lookup: outcome of this test for `CCn1cc(C(=O)O)c(=O)c2ccc(C)nc21` ?
Output: inactive

Task: Call for entry CC(C)C(C)C=CC(C)C1CCC2C3=CC=C4CC(O)CCC4(C)C3CCC21C (stereo not given) :
Output: inactive

Task: For this molecule, state the assay outcome: `Cc1cc(OCCCc2c(C(=O)O)n(Cc3cccnc3)c3c(-c4c(COc5ccc(N6CCN([S+](C)(=O)[O-])CC6)cc5)nn(C)c4C)cccc23)cc(C)c1Cl`
Output: active

Task: Which outcome did this test record for the molecule `O=C(Nc1ccccc1-c1cn2c(CN3CCNCC3)csc2n1)c1cnc2ccccc2n1` ?
Output: active

Task: Can you look up the reported call for `O=C1c2ccccc2-[n+]2ccc3c([nH]c4ccccc43)c21` for me?
Output: active
